List of kon values.
molecular target: T1, DAGWGNLc (SEQ ID NO: 9) peptide conjugated to bovine serum albumin (human; bovine, UniProt P02769 25-607, N-terminus acetylated; C-terminal Cys conjugated to BSA); experiment: SPR, peptide-BSA immobilized (about 50 RU), antibody injected, Langmuir 1:1 fit
T1 construct: TDP-43 residues 65-71 plus an added C-terminal cysteine; also called Peptide conjugated to bovine serum albumin (BSA)
T1 sequence (P02769 25-607 limits assumed): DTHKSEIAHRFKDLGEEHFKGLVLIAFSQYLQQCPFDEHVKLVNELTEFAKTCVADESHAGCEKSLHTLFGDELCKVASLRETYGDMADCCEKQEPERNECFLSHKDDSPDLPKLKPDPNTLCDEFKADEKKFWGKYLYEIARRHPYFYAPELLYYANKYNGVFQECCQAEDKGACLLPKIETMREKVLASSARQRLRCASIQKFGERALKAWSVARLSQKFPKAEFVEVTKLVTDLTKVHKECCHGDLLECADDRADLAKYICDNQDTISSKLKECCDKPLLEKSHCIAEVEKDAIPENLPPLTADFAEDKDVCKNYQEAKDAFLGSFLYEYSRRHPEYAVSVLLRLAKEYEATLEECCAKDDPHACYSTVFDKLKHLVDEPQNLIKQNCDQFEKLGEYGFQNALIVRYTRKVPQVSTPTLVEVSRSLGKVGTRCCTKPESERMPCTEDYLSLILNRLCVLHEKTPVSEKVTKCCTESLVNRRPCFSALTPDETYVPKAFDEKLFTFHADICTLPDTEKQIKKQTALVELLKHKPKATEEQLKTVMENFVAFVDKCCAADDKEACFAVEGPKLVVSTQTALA
Provide the reading as a plain figure in M⁻¹ s⁻¹.

I have this binder here, mouse monoclonal antibody 3E8 (antibody, V domains shown, Mouse hybridoma antibody; also called Mouse 3E8) VH: DVKLVESGGGLVKLGGSLKLSCAASGFTFSSYYMSWVRQTPEKRLELVATINSNGGSTYYPDTVKGRITISRDNAKNTLQLQMSSLRSEDTALYYCVRQNYEGAYWGQGTLVTVSA VL: DVLMTQTPLSLPVTLGDQASISCRSSQSIVHSNGNTYLEWYLQKPGQSPKLLIYKVSNRFSGVPDRFSGSGSGTDFTLKISRVEAEDLGVYYCFQSSHVPWTFGGGTKLEIK , and I need its recorded kon. 2.77e+06

Now the binder rabbit monoclonal antibody 14 (14H1-14K2) (antibody, V domains shown, Recombinant; also called Rabbit 14; clone 14) VH: QEQLEESGGDLVKPEGSLTLTCTASGFSFSSNYVMCWVRQAPGKGLEWVACIWFAGIVDTTYYATWAKGRFTISKTSSTTVTLQMTSLTAADTATYFCARNPVGSVNLWGQGTLVTVS VL: VMTQTPSSKSVPVGGSVTINCQASESVYSNNRLSWYQQKPGQPPKLLIYYASTLESGVPSRFKGSGFGTHFTLTISGAQCDDAATYYCAGWRGARTDGVDFGGGTEVVVK 599000

And for rabbit monoclonal antibody 17 (17H3-17K3) (antibody, V domains shown, Recombinant; also called Rabbit 17; clone 17) VH: QEQLVESGGGLVQPGASLTLTCTASGFSFSSSYVMCWVRQAPGKGLEWITCSDTGINTWYASWAKGRFTISKTSSTTVTLQMTSLTAADTATYFCARRYTGDTYLGNFNLWGQGTLVTVS VL: AQVLTQTPASVSAAVGGTVTINCQASQSVYKNNYLSWYQQKPGQPPKLLIYKASTLASGVPSRFKGSGSGTQFTLTISDVQCDDAATYYCAGGWRSLNAFGGGTEVVVK ? 470000

How about mouse monoclonal antibody 2F7 (antibody, V domains shown, Mouse hybridoma antibody; also called Mouse 2F7) VH: DVKLVESGGGLVKLGGSLKLSCAASGFTFSSYYMSWVRQTPEKRLELVATINSNGGSTYYPDTVKGRITISRDNAKNTLQLQMSSLRSEDTALYYCVRQNYEGAYWGQGTLVTVSA VL: DVLMTQTPLSLPVTLGDQASISCRSSQSIVHSNGNTYLEWYLQKPGQSPKLLIYKVSNRFSGVPDRFSGSGSGTDFTLKISRVEAEDLGVYYCFQSSHVPWTFGGGTKLEIK ? 2.83e+06
